Assay: Solubility / kinetic solubility in pH 6.8 phosphate buffer
Assay type: physicochemical
Settings: phosphate buffer with sodium lauryl sulphate, 37 °C, pH 6.8, aqueous with cosolvent or surfactant or cyclodextrin, thermodynamic from solid, 50 mM Phosphate buffer, pH 6.8, 1.0% SLS
REPORTED METRIC: solubility at 240 min (mg/mL)

COMPOUND: Cc1ccc(-c2nc(N)nc3c2nnn3Cc2cccc(COC3CCOC3)n2)o1 (stereo not shown) [Formula (III)]
UNIT ANNOTATION: mg/mL
RECORDED RESULT: 0.627

* * *

Assay: Solubility / kinetic solubility in pH 6.8 phosphate buffer
Format: physicochemical
Conditions: phosphate buffer, 37 °C, pH 6.8, aqueous buffer, thermodynamic from solid, 10 mM Phosphate buffer, pH 6.8, No Surfactant
REPORTED METRIC: solubility at 240 min

MOLECULE: Cc1ccc(-c2nc(N)nc3c2nnn3Cc2cccc(COC3CCOC3)n2)o1 (stereo not shown)
RECORDED RESULT: 23 µg/mL

* * *

Assay: Chemical characterization (assay, impurities) of drug-layered beads and capsules, initial and at CRT/ACC storage
Type: physicochemical
Details: API
From the text: The amount of the smaller size drug nanoparticles increased as the level of coating increased, with the smaller hump representing the particle size distribution of the drug nanoparticle suspension and the larger hum representing the particle size distribution of the sugar spheres, which largely remained unchanged throughout the process. […]
REPORTED METRIC: Total Impurities (%)

COMPOUND: Cc1ccc(-c2nc(N)nc3c2nnn3Cc2cccc(COC3CCOC3)n2)o1 (stereo not shown)
REPORTED METRIC: Total Impurities
RECORDED RESULT: 0.8

* * *

Test: Solubility / kinetic solubility in pH 6.8 phosphate buffer
Type: physicochemical
Conditions: phosphate buffer, 37 °C, pH 6.8, aqueous buffer, thermodynamic from solid, 50 mM Phosphate buffer, pH 6.8, No Surfactant

MOLECULE: Cc1ccc(-c2nc(N)nc3c2nnn3Cc2cccc(COC3CCOC3)n2)o1 (stereo not shown)
solubility at 240 min: 19 µg/mL

* * *

Test: Solubility / kinetic solubility in pH 6.8 phosphate buffer
Type: physicochemical
Details: phosphate buffer with sodium lauryl sulphate, 37 °C, pH 6.8, aqueous with cosolvent or surfactant or cyclodextrin, thermodynamic from solid, 10 mM Phosphate buffer, pH 6.8, 0.5% SLS

COMPOUND: Cc1ccc(-c2nc(N)nc3c2nnn3Cc2cccc(COC3CCOC3)n2)o1 (stereo not shown)
solubility at 240 min: 419 µg/mL

* * *

Assay: Solubility / kinetic solubility in pH 6.8 phosphate buffer
Format: physicochemical
Conditions: phosphate buffer with sodium lauryl sulphate, 37 °C, pH 6.8, aqueous with cosolvent or surfactant or cyclodextrin, thermodynamic from solid, 50 mM Phosphate buffer, pH 6.8, 0.5% SLS
REPORTED METRIC: solubility at 240 min (µg/mL)

MOLECULE: Cc1ccc(-c2nc(N)nc3c2nnn3Cc2cccc(COC3CCOC3)n2)o1 (stereo not shown)
REPORTED METRIC: solubility at 240 min
UNIT ANNOTATION: µg/mL
RECORDED RESULT: 386

* * *

Experiment: Assay (% LC) and impurities by HPLC of HME extrudates and tablets, initial and on storage
Settings: initial (Table 8E)

COMPOUND: Cc1ccc(-c2nc(N)nc3c2nnn3Cc2cccc(COC3CCOC3)n2)o1 (stereo not shown) [Formula (III)]
Total Impurities, %: 0.8

Values compiled from patent US20190231783A1.
